- study.target: human LXRβ (Homo sapiens)
- protocol.summary: Assay for Transcriptional Activity of LXRβ (GAL4-hLXRβ LBD luciferase reporter, transient transfection)
- assay.setup: increase of transcriptional activity of LXRβ; HEK293 cells transfected with pFA-hLXRβ/GAL4 and pUAS; 24 hours; average of three independent tests
endpoint: EC50 (nM)

Please review the entries below; each comes with its answer.
| compound | quantitative.result |
| --- | --- |
| OC(C1=NN(c2ccc(F)cc2F)C(c2ccc(-c3cncnc3)cc2)C1)(C(F)(F)F)C(F)(F)F (stereo not shown) [Example 372] | 412 |
| Fc1ccc(N2N=C(C(F)(F)C(F)(F)F)CC2c2cccc(-c3cncnc3)c2)c(F)c1 (stereo not shown) [Example 57] | 4770 |
| O=S(=O)(C1CC1)N1CCN(c2ccc(F)c(C3CC(C(F)(F)C(F)(F)F)=NN3c3ccc(F)cc3F)c2)CC1 (stereo not shown) [Example 146] | 842 |
| Cc1ccc(-c2ccc(C3CC(C(O)(C(F)(F)F)C(F)(F)F)=NN3c3ccccc3Cl)cc2)c(F)c1 (stereo not shown) [Example 265] | 239 |
| CS(=O)(=O)N1CCN(c2cccc(C3CC(C(F)(F)C(F)(F)F)=NN3c3ccc(F)cc3F)c2)CC1 (stereo not shown) [Example 96] | 3360 |

(A) CS(=O)(=O)N1CCN(c2ccnc(C3CC(C(F)(F)C(F)(F)F)=NN3c3ccc(F)cc3F)c2)CC1 (stereo not shown) [Example 183]
(B) COc1cccc(-c2ccc(C3CC(C(O)(C(F)(F)F)C(F)(F)F)=NN3c3ccccc3Cl)cn2)c1 (stereo not shown) [Example 349]
Please indicate which item has the smaller measured EC50: A versus B Please identify the chosen entry by its label.
B
(B: 772 nM, A: 3280 nM)

(A) CS(=O)(=O)c1cccc(-c2ccc(C3CC(C(F)(F)C(F)(F)F)=NN3c3ccccc3Cl)cc2)c1 (stereo not shown) [Example 5]
(B) O=C(c1cccs1)N1CC=C(c2cccc(C3CC(C(O)(C(F)(F)F)C(F)(F)F)=NN3c3ccccc3Cl)c2)CC1 (stereo not shown) [Example 234]
Please indicate which item has the smaller measured EC50: A versus B Please identify the chosen entry by its label.
B
(B: 13 nM, A: 330 nM)

(1) CCOc1cccc(-c2ccc(C3CC(C(O)(C(F)(F)F)C(F)(F)F)=NN3c3ccccc3F)cc2)c1 (stereo not shown) [Example 336]
(2) O=C(c1ccccc1)N1CC=C(c2cccc(C3CC(C(O)(C(F)(F)F)C(F)(F)F)=NN3c3ccccc3Cl)c2)CC1 (stereo not shown) [Example 235]
(3) COc1ccc(-c2cccc(C3CC(C(F)(F)C(F)(F)F)=NN3c3ccc(F)cc3F)c2)cn1 (stereo not shown) [Example 56]
(4) CS(=O)(=O)c1cc(F)c(-c2ccc(C3CC(C(O)(C(F)(F)F)C(F)(F)F)=NN3c3ccc(F)cc3F)cc2)c(F)c1 (stereo not shown) [Example 389]
(5) COc1ccc(-c2cc(C3CC(C(F)(F)C(F)(F)F)=NN3c3ccc(F)cc3F)ccc2F)cn1 (stereo not shown) [Example 131]
Please list the entries, largest EC50 first. To answer, arrange all of the labels according to the requested order.
5, 3, 1, 4, 2

----------
- study.target: human LXRβ (Homo sapiens)
- Sequence (P55055 222-460 limits assumed): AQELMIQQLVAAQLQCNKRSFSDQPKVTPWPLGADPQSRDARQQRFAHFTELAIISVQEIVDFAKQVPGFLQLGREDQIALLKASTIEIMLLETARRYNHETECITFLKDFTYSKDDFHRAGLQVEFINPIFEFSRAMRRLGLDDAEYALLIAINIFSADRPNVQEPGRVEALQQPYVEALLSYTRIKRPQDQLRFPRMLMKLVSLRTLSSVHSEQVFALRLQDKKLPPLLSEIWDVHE
- protocol.summary: Assay for Transcriptional Activity of LXRβ (GAL4-hLXRβ LBD luciferase reporter, transient transfection)
- assay.setup: increase of transcriptional activity of LXRβ; HEK293 cells transfected with pFA-hLXRβ/GAL4 and pUAS; 24 hours; average of three independent tests
- Source text: […] The following tables 1 and 2 show the EC50 values of the test compounds measured as in the above. […]
pEC50: −log10 of the molar value.
endpoint: pEC50

Please review the entries below; each comes with its answer.
| molecule | study.target | pEC50 |
| --- | --- | --- |
| CS(=O)(=O)c1ccc(-c2cccc(C3CC(C(F)(F)C(F)(F)F)=NN3c3ccccc3Cl)c2)cc1 (stereo not shown) | human LXRβ (Homo sapiens) | 5.94 |
| CC(=O)Nc1cccc(-c2ccc(C3CC(C(O)(C(F)(F)F)C(F)(F)F)=NN3c3ccccc3Cl)cc2)c1 (stereo not shown) | human LXRβ (Homo sapiens) | 5.71 |
| CN(C)S(=O)(=O)N1CCCN(c2ccc(C3CC(C(O)(C(F)(F)F)C(F)(F)F)=NN3c3ccccc3Cl)cc2)CC1 (stereo not shown) | human LXRβ (Homo sapiens) | 6.26 |
| CS(=O)(=O)c1cccc(-c2cncc(C3CC(C(F)(F)C(F)(F)F)=NN3c3ccc(F)cc3F)c2)c1 (stereo not shown) | human LXRβ (Homo sapiens) | 6.65 |

(P) CS(=O)(=O)c1cccc(-c2cc(C3CC(C(F)(F)C(F)(F)F)=NN3c3ccc(F)cc3F)ccn2)c1 (stereo not shown)
(Q) CSc1ccc(-c2ccc(C3CC(C(O)(C(F)(F)F)C(F)(F)F)=NN3c3ccc(F)cc3F)cc2)cn1 (stereo not shown)
(R) O=S(=O)(C1CC1)N1CCN(c2ccc(C3CC(C(O)(C(F)(F)F)C(F)(F)F)=NN3c3ccccc3Cl)cc2)CC1 (stereo not shown)
Rank items: key pEC50, increasing. To answer, arrange all of the labels according to the requested order.
R, Q, P
(R: 5.83, Q: 6.11, P: 6.52)

----------
- study.target: human LXRβ (Homo sapiens, UniProt P55055)
- protocol.summary: Assay for Transcriptional Activity of LXRβ (GAL4-hLXRβ LBD luciferase reporter, transient transfection)
- assay.setup: increase of transcriptional activity of LXRβ; HEK293 cells transfected with pFA-hLXRβ/GAL4 and pUAS; 24 hours; average of three independent tests
pEC50: −log10 of the molar value.
endpoint: pEC50

Please review the entries below; each comes with its answer.
| compound | quantitative.result |
| --- | --- |
| CC(C)S(=O)(=O)N1CCN(c2ccc(C3CC(C(O)(C(F)(F)F)C(F)(F)F)=NN3c3ccccc3Cl)cc2)CC1 (stereo not drawn) [Example 314] | 6.05 |
| CN(CCO)S(=O)(=O)c1ccc(-c2cccc(C3CC(C(F)(F)C(F)(F)F)=NN3c3ccc(F)cc3F)c2)cc1 (stereo not drawn) [Example 88] | 6.09 |
| CC(C)C(=O)N1CC=C(c2ccc(C3CC(C(O)(C(F)(F)F)C(F)(F)F)=NN3c3ccc(F)cc3F)cc2)CC1 (stereo not drawn) [Example 402] | 5.99 |
| Cc1ncccc1-c1cccc(C2CC(C(F)(F)C(F)(F)F)=NN2c2ccc(F)cc2F)c1 (stereo not drawn) [Example 71] | 5.91 |
| CCOc1cccc(-c2ccc(C3CC(C(O)(C(F)(F)F)C(F)(F)F)=NN3c3ccccc3Cl)c(F)c2)c1 (stereo not drawn) [Example 339] | 5.95 |
| Cc1cccc(-c2ccc(C3CC(C(O)(C(F)(F)F)C(F)(F)F)=NN3c3ccccc3Cl)cc2)n1 (stereo not drawn) [Example 276] | 5.91 |

(1) OC(C1=NN(c2ccccc2Cl)C(c2ccc(-c3cc4ccccc4s3)cc2)C1)(C(F)(F)F)C(F)(F)F (stereo not drawn) [Example 263]
(2) OC(C1=NN(c2ccc(F)cc2F)C(c2ccc(-c3ccccn3)cc2)C1)(C(F)(F)F)C(F)(F)F (stereo not drawn) [Example 385]
Please indicate which item has the smaller measured pEC50: 1 versus 2 Please identify the chosen entry by its label.
1

----------
- study.target: human LXRβ (Homo sapiens)
- Construct: expressed in transfected cells; host or cells: HEK293 cells (ATCC CRL-1573), transient transfection with pFA-hLXRβ/GAL4 and pUAS
- protocol.summary: Assay for Transcriptional Activity of LXRβ (GAL4-hLXRβ LBD luciferase reporter, transient transfection)
- Assay type: cell-based
- assay.setup: fold value in comparison with the control (DMSO-treated group); HEK293 cells transfected with pFA-hLXRβ/GAL4 and pUAS; 24 hours
endpoint: Emax (fold)

| compound | study.target | output.unit | Emax |
| --- | --- | --- | --- |
| CN(CCCS(=O)(=O)c1cccc(-c2ccc(C3CC(C(O)(C(F)(F)F)C(F)(F)F)=NN3c3ccccc3Cl)cc2)c1)C(=O)OC(C)(C)C (stereo not shown) | human LXRβ (Homo sapiens) | fold | 73 |
| CS(=O)(=O)c1cccc(-c2ccc(C3CC(C(F)(F)C(F)(F)F)=NN3c3ccc(F)cc3F)cc2)c1 (stereo not shown) | human LXRβ (Homo sapiens) | fold | 103 |
| CS(=O)(=O)Nc1cccc(-c2ccc(C3CC(C(O)(C(F)(F)F)C(F)(F)F)=NN3c3ccccc3Cl)cc2)c1 (stereo not shown) | human LXRβ (Homo sapiens) | fold | 78 |
| CS(=O)(=O)c1ccc(-c2cccc(C3CC(C(F)(F)C(F)(F)F)=NN3c3ccc(F)cc3F)c2)cc1C(F)(F)F (stereo not shown) | human LXRβ (Homo sapiens) | fold | 83 |
